# assay_remarks: protein stability index of a GFP-peptide fusion (GPS, HEK-293T) (PSI 1-6); higher = more stable;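 further: 24-mer peptide tiles fused after GFP, lentivirally expressed, FACS-sorted into six equal bins by GFP/DsRed ratio, decoded by Illumina sequencing, PSI is the read-weighted mean bin number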
# measurement_parameters: treatment: DMSO; c terminus: a fixed tail appended
quantity_kind: protein stability index
The response must contain the number and no unit.

Example sequences with recorded protein stability index:
INSERT INTO measurements (primary_sequence, quantity_kind, numeric_value) VALUES
  ('KTLQEIYRKYRKLIESELSYFVIV [FBXO39]', 'protein stability index', 2.37),
  ('TVVGVPSGKVSSSSSSLGNKLQTL [ZC2HC1A]', 'protein stability index', 3.56);

Inquiry: Query: protein stability index; subject: PRAAGTDGSDFQHRERVAMHYQMS [JAGN1]
Reply text: 3.96

Inquiry: Let us now turn to EPQPFVTSDVYSSDAAFGGILERY [MYORG]
Reply text: 3.79

###

# assay_remarks: protein stability index of a GFP-peptide fusion (GPS, HEK-293T) (PSI 1-6); higher = more stable
# measurement_parameters: treatment: DMSO; c terminus: a fixed tail appended
protein stability index: recorded values

Example sequences with recorded protein stability index:
INSERT INTO results (primary_sequence, result) VALUES
  ('YWKDTRTSGVVFTGLMVSLLCLLH [RTN2]', 2.3),
  ('QRFRLDNLLNMAYGVKSPLSLIAR [ELAVL3]', 2.05),
  ('VEQPQPQFISRFLEGQSGVTIKHV [NEK8]', 3.27),
  ('EQQQILIRQLQEQHYQQYMQQLYQ [ACBD3]', 2.2),
  ('CGRKLAKDGEYCWRWTGFNFGFDL [GMCL1]', 2.72),
  ('DDSCQDQPGTNCALAIKVNLCGHW [ADAMTSL2]', 2.57),
  ('TDGERVAEVAPEERENVAVAKLQE [SDE2]', 5.59),
  ('NGDPESVASLHWDGGALLGVLQYR [ADAMTS4]', 2.29),
  ('ARIRDEEAQRASFLQNAVLAYVQA [LRRC45]', 2.46),
  ('LEGQDAKMIGFPSSAGSVSPRSTS [KRT13]', 5.18);

Inquiry: Query: protein stability index; subject: MAAGTSSYWEDLRKQARQLENELD [GOSR1]
Reply text: 4.11

Inquiry: Let us now turn to RFDGLPAVLGFPGFSSGRHRWQVD [TRIM15]
Reply text: 2.62

Inquiry: Let us now turn to DANLLNDRVLRAMLKAEETCAPSV [CCND1]
Reply text: 3.33

Inquiry: Let us now turn to TELRLLGRTHSACDALRTLAEARR [RSAD1]
Reply text: 3.46

Inquiry: Let us now turn to CDPGLTAFEPEALGNLVEGMDFHR [CAMK2D]
Reply text: 4.33

###

# assay_remarks: protein stability index of a GFP-peptide fusion (GPS, HEK-293T) (PSI 1-6); higher = more stable
# measurement_parameters: treatment: MLN4924 1 uM, 8 h; c terminus: a fixed tail appended
quantity_kind: protein stability index

Example sequences with recorded protein stability index:
INSERT INTO assay_data (primary_sequence, result) VALUES
  ('EDVDTSQVLYEWEQGFSQSFTQEQ [CTNNB1]', 5.07),
  ('GGTDPHGYHQVPGSAAPGSPLAAD [FOXJ1]', 5.23),
  ('RNNANGVDLNRNFPDLNTYIYYNE [CPN1]', 3.14),
  ('GLLETEPLQGTDEDAVASADFSSM [TPD52L1]', 5.29),
  ('EEKQRELARKGSLKNGSMGSPVNQ [FAM219A]', 5.35);

Inquiry: Query: protein stability index; subject: PADALQYLLQFARKPVEAESVEGV [INTS4]
Reply text: 2.98

Inquiry: Let us now turn to PAFLKWLSLASLLVYVAAFSIGLG [SLC2A12]
Reply text: 3.48

###

# assay_remarks: protein stability index of a GFP-peptide fusion (GPS, HEK-293T) (PSI 1-6); higher = more stable
# measurement_parameters: treatment: MLN4924 1 uM, 8 h; c terminus: a fixed tail appended
Decision: protein stability index compared against 4; not below it gives criterion met, below it gives criterion not met.

Answered examples (8):
INSERT INTO assay_data (primary_sequence, classification) VALUES
  ('FTNDKIINLPVEEFNELLSKYQLS [NFE2L1]', 'criterion not met'),
  ('GKTYCKRDYVRLFGIKCAKCQVGF [ISL2]', 'criterion not met'),
  ('QPELPCAMAMGTPSTTERISTSGQ [PXN]', 'criterion met'),
  ('KIKSEEIEITFSYWDGSGHRRTVK [FAM50A]', 'criterion not met'),
  ('LRLYKHNSQALLLHSSILTCTLLL [MFSD9]', 'criterion not met'),
  ('YLHNHFIGEGMTKYDYLMTLHGVV [TENT5D]', 'criterion not met'),
  ('SAIVLGDLKLRKFVFSTEERTQLR [TRIB1]', 'criterion not met'),
  ('AAQAAAAAHAAQAHRERNEFPEDP [PI4K2A]', 'criterion met');

Inquiry: For this sequence, is measured protein stability index 4 or higher? TFDGSLFAVFPSLNEEQTLQEVPT [ETS2]
Reply text: criterion not met

Inquiry: Let us now turn to QWILDKQDLLKERQKDLKFLSEEE [CCNC]
Reply text: criterion met

Inquiry: Let us now turn to RTLWSGLPATLVMTVPATAIYFTA [SLC25A39]
Reply text: criterion not met

Inquiry: Let us now turn to PNRAGAPGESLECPAELRPQVPQP [TRAF3IP2]
Reply text: criterion met

Inquiry: Let us now turn to PPGLPAETIKDLMRQFLRGLDFLH [CDK4]
Reply text: criterion not met

###

protein stability index: recorded values
# assay_remarks: protein stability index of a GFP-peptide fusion (GPS, HEK-293T) (PSI 1-6); higher = more stable
# measurement_parameters: treatment: DMSO; c terminus: a fixed tail appended
The response must contain the number and no unit.

INSERT INTO results (primary_sequence, quantity_kind, numeric_value) VALUES
  ('VLSLVKKHYRLQFYMFAWTHVTLL [CDS1]', 'protein stability index', 3.25),
  ('LVVFAVLGFKANIMNEKCVVENAE [SLC6A17]', 'protein stability index', 2.97),
  ('PEQLVLTLLEAEPPHVLISRPSAP [ESR2]', 'protein stability index', 2.89),
  ('TGFTVNVAWNGPRMGDADYLAAWH [HDAC6]', 'protein stability index', 2.43),
  ('PQNGSETGWARKGLGNTWPGASGS [ATP23]', 'protein stability index', 4.32);

Inquiry: Query: protein stability index; subject: LEQFLAILPKELQAWVQKHHPENG [ZNF396]
Reply text: 2.63

Inquiry: Let us now turn to VLLLGSVDGRHLLRTLSRAKFWPR [DNAAF3]
Reply text: 2.08

###

# assay_remarks: protein stability index of a GFP-peptide fusion (GPS, HEK-293T) (PSI 1-6); higher = more stable
# measurement_parameters: treatment: DMSO; c terminus: a fixed tail appended
quantity_kind: protein stability index

Example sequences with recorded protein stability index:
INSERT INTO assay_data (primary_sequence, quantity_kind, result) VALUES
  ('VVELLLAHGADPTHRLKDGSTMLI [ANKRD17]', 'protein stability index', 2.13),
  ('HAVSTCHFCVDDTKLLSGSYDCTV [WDR88]', 'protein stability index', 2.46),
  ('TNTTSTQMTNIGVYVSNMTDKLVT [IQUB]', 'protein stability index', 2.78);

Inquiry: Query: protein stability index; subject: HDRNMDWVSTQLQATCNVHKSAFN [FADS1]
Reply text: 3.22

Inquiry: Let us now turn to RAGGPPRPMSEPGAGAGSSLLDVA [SMAD6]
Reply text: 4.39

Inquiry: Let us now turn to PTVTTSWQSESLPVSLSASQSWHT [BCL2L13]
Reply text: 3.25

Inquiry: Let us now turn to AEVAPEERENVAVAKLQESQPGNA [SDE2]
Reply text: 5.49

Inquiry: Let us now turn to MPHSVTLRGPSPWGFRLVGGRDFS [PDLIM4]
Reply text: 2.61

Inquiry: Let us now turn to TIIASNAEEAEILHSACGLSKDHQ [TOR1AIP2]
Reply text: 4.48

Inquiry: Let us now turn to DATWAAVAACTKEIDTQGRHLAHS [C10orf62]
Reply text: 4.04

Inquiry: Let us now turn to VHRQLSHLYAEPQKSPWCEARSLE [ESR2]
Reply text: 2.92

Inquiry: Let us now turn to PWSPCSARFITDFLDNGYGHCLLD [ADAMTS4]
Reply text: 2.05

Inquiry: Let us now turn to LPIIQSNQVSSNSWGIAGETELAL [DLC1]
Reply text: 3.52

Where do the numbers come from? From the supplement of paper PMC10567573.
